system: Escherichia coli; details: Concentration 32 ug.mL-1;; ASSAY_TEST Inhibition of Bacterial Growth; detection method Absorption (OD600); MEDIA CAMHB; plate type 384well; NBS; CORNING #3640; time 18 hr
Description: Antibacterial activity against Escherichia coli ATCC 25922 (CO-ADD:GN_001); MIC in CAMBH media using NBS plates, by OD(600)
Entries with a potency or affinity are not part of this list.
observationType: Inhibition (%)

smilesRepr | testedTarget | observationType | u | testValue
COc1ccccc1NC(=O)Cn1nc2c(SC3CCCCC3)nccn2c1=O | Escherichia coli | Inhibition | % | -14.54
CCCCn1c(=O)c2sccc2n2c(CCC(=O)Nc3ccc(OC(F)(F)F)cc3)nnc12 | Escherichia coli | Inhibition | % | -8.31
O=C(Cn1nc2ccc(SC3CCCCC3)nn2c1=O)NCc1ccc(Cl)cc1 | Escherichia coli | Inhibition | % | -1.29
Cc1cc(C)c(NC(=O)Cn2nc3c4cc(-c5ccc(F)cc5)nn4ccn3c2=O)c(C)c1 | Escherichia coli | Inhibition | % | 1.69
Cc1ccc(-c2nnc3c(=O)n(CC(=O)Nc4cc(C)cc(C)c4)c4ccccc4n23)cc1 | Escherichia coli | Inhibition | % | 0.18

###

Catalogue of molecules with associated Inhibition
system: Staphylococcus aureus; settings: Concentration 32 ug.mL-1;; ASSAY_TEST Inhibition of Bacterial Growth; detection method Absorption (OD600); MEDIA CAMHB; plate type 384well; NBS; CORNING #3640; time 18 hr
Description: Antibacterial activity against Staphylococcus aureus MRSA ATCC 43300 (CO-ADD:GP_020); MIC in CAMBH media, using NBS plates, by OD(600)
Potency and affinity values are given separately.
observationType: Inhibition

molecule | observationType | testValue
CCOc1ccc(C(=O)CSc2nnc3c(=O)n(-c4ccc(C)c(C)c4)ccn23)cc1 | Inhibition | 9.97%
O=C(Cn1nc2c(SC3CCCCC3)nccn2c1=O)NCc1ccc(F)cc1 | Inhibition | 3.45%
CCc1ccc(NC(=O)Cn2nc3c(Sc4ccccc4)nccn3c2=O)cc1 | Inhibition | 6.66%
O=C(Cn1nc2ccc(-c3ccccc3)nn2c1=O)Nc1ccc(F)cc1 | Inhibition | 1.63%
O=c1c2sccc2n2c(=S)[nH]nc2n1CC1CCCO1 (stereo not given) | Inhibition | 3.07%
COc1cc(NC(=O)Cn2nc3c(Oc4ccccc4)nccn3c2=O)cc(OC)c1OC | Inhibition | 13.24%
COc1cccc(-c2nc(CSc3nc4ccccc4n4c(C(C)C)nnc34)c(C)o2)c1OC | Inhibition | 5.27%
COc1cccc(-n2ccn3c(SCC(=O)Nc4ccc(F)cc4F)nnc3c2=O)c1 | Inhibition | 12.12%
N#CCn1nc2n(CCC(=O)NC3CCCCC3)c(=O)c3ccccc3n2c1=O | Inhibition | 8.56%
Cc1cccc(N(C)C(=O)Cn2nc3cc(C)nc(Nc4ccc(C)c(F)c4)n3c2=O)c1 | Inhibition | -15.22%
O=C(Cn1nc2c(N3CCOCC3)nc3ccccc3n2c1=O)NCc1ccccc1Cl | Inhibition | -2.26%
CC(C)CCNC(=O)Cn1nc2n(Cc3ccco3)c(=O)c3sccc3n2c1=O | Inhibition | 8.27%
CCOC(=O)c1ccccc1NC(=O)Cn1nc2c(Oc3ccc(C)cc3)nccn2c1=O | Inhibition | -14.8%
O=C(CSc1nnc2c(=O)n(-c3ccc(F)c(F)c3)ccn12)c1ccccc1Cl | Inhibition | 3.6%
CCc1ccccc1Sc1nccn2c(=O)n(CC(=O)Nc3ccc(Br)cc3)nc12 | Inhibition | -9.89%
CC(C)(C)S(=O)(=O)c1ccc2nn(CC(=O)Nc3ccc4c(c3)OCO4)c(=O)n2n1 | Inhibition | 14.6%
O=c1c2sccc2n2c(=O)n(Cc3ccc(Br)cc3)nc2n1CCc1ccccc1 | Inhibition | -9.4%
Cc1ccc(Sc2nccn3c(=O)n(CC(=O)Nc4cccc(Cl)c4)nc23)c(C)c1 | Inhibition | 9.86%
COc1cc(NC(=O)Cn2nc3ccc(SC4CCCCC4)nn3c2=O)cc(OC)c1 | Inhibition | -2.94%
O=S(=O)(Nc1ccc2c(c1)OCCO2)c1ccc2nncn2c1 | Inhibition | 11.97%
COc1cccc(Oc2nccn3c(=O)n(CC(=O)Nc4ccc(Br)cc4F)nc23)c1 | Inhibition | 14.87%
C=Cc1ccc(CN(c2ccc(Cl)cc2)S(=O)(=O)c2cccn3c(C)nnc23)cc1 | Inhibition | 6.06%
O=C(Cn1nc2ccc(SC3CCCCC3)nn2c1=O)Nc1ccc2c(c1)OCO2 | Inhibition | -7.41%
O=C(Cn1nc2ccc(SCc3ccc(Cl)cc3)nn2c1=O)NCc1ccc2c(c1)OCO2 | Inhibition | -2.67%
CCCCOc1ccc(-c2cc3c4nnc(SCC(=O)Nc5c(C)cccc5CC)n4ccn3n2)cc1 | Inhibition | -40.6%
COc1cccc(-n2ccn3c(SCc4ccc(C)cc4)nnc3c2=O)c1 | Inhibition | 8.11%
COc1ccc(NC(=O)c2ccc3nn(CC(=O)Nc4ccc(S(C)(=O)=O)cc4)c(=O)n3c2)cc1 | Inhibition | 11.72%
COc1ccc(N(Cc2ccc(Cl)cc2)S(=O)(=O)c2ccc3nncn3c2)cc1 | Inhibition | -6.81%
Cc1ccc(-c2ccc3nn(Cc4ccc(N5CCCC5=O)cc4)c(=O)n3n2)cc1 | Inhibition | 5.05%
CC(C)Cn1c(=O)c2sccc2n2c(=O)n(CC(=O)N(C)c3ccccc3)nc12 | Inhibition | 4.88%
Cc1ccc(NC(=O)Cn2c(=O)c3nnc(C)n3c3ccccc32)cc1F | Inhibition | 11.98%
Cc1ccc(NC(=O)Cn2nc3c(SCc4ccccc4)nccn3c2=O)cc1C | Inhibition | 6.06%
COc1ccc(-c2cc3c4nnc(CCC(=O)NCCc5ccccc5)n4ccn3n2)cc1 | Inhibition | 6.36%
COc1cccc(CNC(=O)CSc2nnc3c(=O)n(-c4ccc(F)cc4)ccn23)c1OC | Inhibition | 19.94%
CCc1ccccc1Sc1nccn2c(=O)n(CC(=O)Nc3ccc(C)cc3)nc12 | Inhibition | 2.48%
Cc1ccccc1Oc1nccn2c(=O)n(CC(=O)Nc3ccccc3C(F)(F)F)nc12 | Inhibition | 10.19%
O=c1n(Cc2cccc(C(F)(F)F)c2)nc2c(S(=O)(=O)N3CCCC3)cccn12 | Inhibition | 9.3%
COc1ccc(C(=O)CSc2nnc3c(=O)n(-c4ccc(F)cc4)ccn23)cc1 | Inhibition | 13.68%
O=C(Cn1nc2c(Oc3ccccc3)nc3ccccc3n2c1=O)Nc1ccc2c(c1)OCO2 | Inhibition | 13.59%
CCCn1c(=O)c2sccc2n2c(CCC(=O)NCCC34CC5CC(CC(C5)C3)C4)nnc12 | Inhibition | 0.48%

###

system: Staphylococcus aureus; details: Concentration 32 ug.mL-1;; ASSAY_TEST Inhibition of Bacterial Growth; detection method Absorption (OD600); MEDIA CAMHB; plate type 384well; NBS; CORNING #3640; time 18 hr
Potency and affinity values are given separately.
observationType: Inhibition (%)

smilesRepr | testedTarget | testValue
Cc1ccc(NC(=O)Cn2nc3ccc(SC4CCCCC4)nn3c2=O)cc1C | Staphylococcus aureus | -6.2
CCc1ccc(NC(=O)Cn2c(=O)c3nnc(C(C)C)n3c3ccccc32)cc1 | Staphylococcus aureus | 6.08
COc1ccccc1N1CCN(C(=O)CSc2nnc3c(=O)n(-c4ccc(F)cc4)ccn23)CC1 | Staphylococcus aureus | 6.93
COc1cc(NC(=O)Cn2nc3ccc(SC(C)(C)C)nn3c2=O)cc(OC)c1OC | Staphylococcus aureus | 10.38
CC(C)Cc1ccc(S(=O)(=O)Nc2ccc3nncn3n2)cc1 | Staphylococcus aureus | 13.61
O=C(CSc1nnc2c3cc(-c4ccccc4)nn3ccn12)NCc1ccc(Cl)cc1 | Staphylococcus aureus | 6.91
CC(C)NC(=O)CCn1c(=O)c2cc(Cl)ccc2n2c(=O)n(CC#N)nc12 | Staphylococcus aureus | 0.39
CC(C)(C)OC(=O)N1CCC(NC(=O)CCc2nnc3ccc(-c4ccccc4)nn23)CC1 | Staphylococcus aureus | 1.31
CCCCn1c(=O)c2sccc2n2c(=O)n(CC(=O)N3CCC(Cc4ccccc4)CC3)nc12 | Staphylococcus aureus | -14.82
COc1ccc(CN(c2ccc(F)c(F)c2)S(=O)(=O)c2ccc3nncn3c2)cc1 | Staphylococcus aureus | -0.97

###

tested on: Staphylococcus aureus; conditions: Concentration 32 ug.mL-1;; ASSAY_TEST Inhibition of Bacterial Growth; detection method Absorption (OD600); MEDIA CAMHB; plate type 384well; NBS; CORNING #3640; time 18 hr
Potency and affinity values are given separately.

smilesRepr | u | Inhibition
CCOC(=O)c1ccc(NC(=O)Cn2nc3c4sc(N5CCCC5)nc4ncn3c2=O)cc1 | % | 6.07
Cc1cc(Nc2ccc(F)cc2)nc2nn(CCc3ccccc3)c(=O)n12 | % | 4.62
CCCCOc1ccc(-c2cc3c4nnc(SCC(=O)Nc5ccc(C)c(F)c5)n4ccn3n2)cc1 | % | 5.13
COc1ccccc1N1CCN(C(=O)CSc2nnc3c(=O)n(-c4ccccc4)ccn23)CC1 | % | 3.83
CSc1ccc(CNC(=O)Cn2nc3c(Oc4ccc(C)cc4)nccn3c2=O)cc1 | % | -14.59
O=c1c2nnc(SCc3ccccc3)n2ccn1-c1ccc(Br)cc1 | % | 12.69
Cc1ccc(NC(=O)Cn2nc3ccc(-c4ccc(Cl)cc4)nn3c2=O)cc1F | % | 3.27
Cc1nnc2ccc(S(=O)(=O)N(Cc3ccccc3Cl)c3cccc(F)c3)cn12 | % | -1.06
O=C(Cn1nc2c(Oc3ccccc3)nccn2c1=O)Nc1ccc(F)cc1F | % | 6.01
COc1ccc(-c2noc(Cn3nc4ccc(-c5ccccc5)nn4c3=O)n2)cc1OC | % | 7.44
CCOc1ccccc1NC(=O)Cn1nc2c3c4c(sc3ncn2c1=O)CCCC4 | % | -4.82
COc1ccc(Cl)cc1NC(=O)CSc1nc2ccccc2n2cnnc12 | % | 12.82
CCCc1nnc2c(=O)n(CC(=O)Nc3ccc(Cl)c(Cl)c3)c3ccccc3n12 | % | -1.25
Cc1cc(C)c(NC(=O)Cn2nc3c4c5c(sc4ncn3c2=O)CCCC5)c(C)c1 | % | 8.81
O=C(CSc1nnc2ccc(C(=O)Nc3cccc(F)c3)cn12)Nc1ccc(F)c(F)c1 | % | 8.43
O=c1c2sccc2n2c(=O)n(Cc3ccccc3Cl)nc2n1Cc1cccs1 | % | -1.31
COc1ccc(OC)c(NC(=O)Cn2nc3c4cc(-c5ccc(Cl)cc5)nn4ccn3c2=O)c1 | % | -2.94
O=C(CSc1nnc2c(=O)n(-c3ccccc3)ccn12)Nc1ccc2c(c1)OCO2 | % | 8.51
COc1ccc(NC(=O)CSc2nc3ccccc3n3cnnc23)cc1OC | % | 12.3
O=S(=O)(c1ccc2nncn2c1)N(Cc1ccc(F)cc1)c1ccc(F)c(F)c1 | % | -11.56
COc1ccc(NC(=O)Cn2nc3ccc(SC4CCCCC4)nn3c2=O)cc1OC | % | 3.6
